Target: PLK2 (Homo sapiens)
Sequence (Q9NYY3 whole entry): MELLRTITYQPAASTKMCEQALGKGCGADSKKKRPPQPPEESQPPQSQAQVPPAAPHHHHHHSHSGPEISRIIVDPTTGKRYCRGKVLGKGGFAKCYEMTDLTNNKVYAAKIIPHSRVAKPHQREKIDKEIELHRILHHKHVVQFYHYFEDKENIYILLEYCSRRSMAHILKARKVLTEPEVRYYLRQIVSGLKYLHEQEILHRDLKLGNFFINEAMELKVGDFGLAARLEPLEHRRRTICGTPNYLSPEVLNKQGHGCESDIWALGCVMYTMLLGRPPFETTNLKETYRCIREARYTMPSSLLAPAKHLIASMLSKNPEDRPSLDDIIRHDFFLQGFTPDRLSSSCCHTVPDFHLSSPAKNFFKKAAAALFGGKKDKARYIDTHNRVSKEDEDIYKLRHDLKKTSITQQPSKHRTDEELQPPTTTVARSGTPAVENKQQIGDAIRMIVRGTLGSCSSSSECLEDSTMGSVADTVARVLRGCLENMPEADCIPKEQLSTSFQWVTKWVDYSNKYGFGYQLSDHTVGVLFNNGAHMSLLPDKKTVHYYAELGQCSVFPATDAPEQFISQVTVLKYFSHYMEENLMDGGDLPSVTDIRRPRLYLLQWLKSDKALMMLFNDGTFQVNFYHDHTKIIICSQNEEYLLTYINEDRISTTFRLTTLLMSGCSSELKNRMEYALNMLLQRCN
Assay: PLK TR-FRET peptide assay, PLK2
Type: biochemical
Conditions: PLK TR-FRET peptide assay, GST-PLK2, 60 min reaction; read-out: Plk2 IC50
measureName: IC50

A selection of reference data follows.
molecule: CC[C@@H]1C(=O)N(C)c2cnc(-n3ccnc3-c3ccc(F)cc3F)nc2N1C1CC(F)(F)C1
reported: < 1000 nM

molecule: [2H]C([2H])([2H])N1C(=O)C(C([2H])([2H])C([2H])([2H])[2H])N(C([2H])(C([2H])([2H])[2H])C([2H])([2H])[2H])c2nc(-n3ccnc3-c3cccc(C(F)(F)F)c3)ncc21 (stereo not shown)
reported: < 1000 nM

molecule: CC[C@@H]1C(=O)N(C)c2cnc(-n3ccnc3N3C(=O)CCC3=O)nc2N1C1CCC1
reported: 10000 to 50000 nM

molecule: CC[C@@H]1C(=O)N(C)c2cnc(-c3ccncc3CNS(=O)(=O)c3ccccc3)nc2N1C(C)C
reported: 1000 to 10000 nM

In: Any idea what IC50 was measured for CC[C@@H]1C(=O)N(C)c2cnc(-c3ccncc3N)nc2N1C1CCCC1 ?
Out: < 1000 nM

In: Any idea what IC50 was measured for CC[C@@H]1C(=O)N(C)c2cnc(-n3ccnc3-c3cccc(Cl)c3)nc2N1C(C)C ?
Out: < 1000 nM

In: Any idea what IC50 was measured for CC[C@@H]1C(=O)N(C)c2cnc(-n3cnc4ccccc43)nc2N1C1CCCC1 ?
Out: < 1000 nM
